The values you see were collected from paper PMC9482650.

target: Inadl_8, Q8NI35; test: holdup assay; design: key: below the threshold = too weak to quantify, mostly under pKd 3.1 to 4; conditions: plain residues with an end cap or a label only (N-terminal biotin on a linker: ahx)
Sequence (Q8NI35 1425-1530): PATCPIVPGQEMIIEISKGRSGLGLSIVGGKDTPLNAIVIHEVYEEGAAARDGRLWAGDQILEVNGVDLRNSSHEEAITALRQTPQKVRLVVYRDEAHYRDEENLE
Measure: pKd
Form rule: numeric answer, no unit written next to it.

In [3]: df
Out[3]:
                       binder  value
0  HSATSVHTSV [MTMR1, Q13613]   3.88

Shifting focus to the binder that follows.
Recorded result, ADENEQVSAV [RAPGEF6, Q8TEU7] , pKd: 3.86
